All figures here come from patent US4340609A.

tested on: plasmodium berghei; assay: suppression of parasitemia in mice infected with plasmodium berghei; type: in vivo; conditions: mice, s.c., 1.0 mg/kg on days 1-3; 6th day
Where a name gives a salt, the structure may show the parent alone.
Exercise: for every item that follows, state its recorded Mean % Parasitemia.
Provide the reading as a plain figure in %.

Prompt: API: value(readout=Mean % Parasitemia, system=plasmodium berghei) for record CNC(=N)NC(=O)Nc1c(C)cccc1Br [Compound B, hydrochloride]
Completion: 5.10

Prompt: API: value(readout=Mean % Parasitemia, system=plasmodium berghei) for record CNC(=N)NC(=O)Nc1c(C)cc(Br)cc1Cl.Cl [Compound C]
Completion: 5.20

Prompt: API: value(readout=Mean % Parasitemia, system=plasmodium berghei) for record CCCNC(=O)NC(=N)Nc1c(Cl)cccc1Cl [Compound A]
Completion: 4.60

Prompt: API: value(readout=Mean % Parasitemia, system=plasmodium berghei) for record CCCN=C(NC)NC(=O)Nc1c(C)cccc1C [Compound D, hydrochloride]
Completion: 6.70

* * *

Exercise: for every item that follows, state its recorded % died.
system: plasmodium berghei; experiment: suppression of parasitemia in mice infected with plasmodium berghei; type: in vivo; details: mice, s.c., .20 mg/kg on days 1-3; 12th day
Counter-ions that a name gives are not always drawn.

Prompt: Name the reported % died value associated with the molecule CNC(=N)NC(=O)Nc1c(C)cc(Br)cc1Cl.Cl [Compound C]
Completion: 40%

Prompt: Name the reported % died value associated with the molecule CNC(=N)NC(=O)Nc1c(C)cccc1Br [Compound B, hydrochloride]
Completion: 0%

Prompt: Name the reported % died value associated with the molecule Cc1cccc(C)c1NC(=O)NC(=N)NC(C)C.Cl [Compound E]
Completion: 0%

Prompt: Name the reported % died value associated with the molecule CCCNC(=O)NC(=N)Nc1c(Cl)cccc1Cl [Compound A]
Completion: 0%

Prompt: Name the reported % died value associated with the molecule CCCN=C(NC)NC(=O)Nc1c(C)cccc1C [Compound D, hydrochloride]
Completion: 40%

* * *

system: plasmodium berghei; assay: suppression of parasitemia in mice infected with plasmodium berghei; assay type: in vivo; details: mice, s.c., .30 mg/kg on days 1-3; 13th day
Where a name gives a salt, the structure may show the parent alone.
quantity: % died (%)
Provide the reading as a plain figure in %.

Prompt: Name the reported % died value associated with the compound CNC(=N)NC(=O)Nc1c(C)cc(Br)cc1Cl.Cl [Compound C]
Completion: 40

Prompt: Name the reported % died value associated with the compound CCCNC(=O)NC(=N)Nc1c(Cl)cccc1Cl [Compound A]
Completion: 20

Prompt: Name the reported % died value associated with the compound CNC(=N)NC(=O)Nc1c(C)cccc1Br [Compound B, hydrochloride]
Completion: 0

Prompt: Name the reported % died value associated with the compound CCCN=C(NC)NC(=O)Nc1c(C)cccc1C [Compound D, hydrochloride]
Completion: 0
